Reported Cmax values for a set of molecules
# PROTOCOL NOTES: Pharmacokinetics assay in rats (LC/MS/MS plasma concentration)
# Assay type: in vivo, SD rats
# EXPERIMENTAL PARAMETERS: both sexes, SD, rat, plasma, po, 3 mg/kg, intragastric 3.0 mg/kg, read-out: Cmax
# Text: The compound of Example 3 was administrated intragastrically or tail vein injection to rats and the compounds of Example 1-4, Example 9 and Example 11-12 were administrated intragastrically to determine the drug concentration in plasma at different time points by LC/MS/MS measurement. The pharmacokinetics of the compounds of the present invention was studied and evaluated in rats. And the oral absolute bioavailability was investigated. Compounds of Example 1-4, Example 9 and Example 11-12. […]
Value expressed in ng/mL; do not type the unit.

Observe how each entry below is paired with its result.
SMILES RECORD: N[C@@H](CC(=O)N1CCn2c(C(F)(F)F)nc(C(=O)O)c2C1)Cc1cc(F)c(F)cc1F.O=C(O)C(O)C(O)C(=O)O
RECORDED ENDPOINT: Cmax
MEAS VALUE: 17
--
SMILES RECORD: Cl.N[C@@H](CC(=O)N1CCn2c(C(F)(F)F)nc(C(=O)O)c2C1)Cc1cc(F)c(F)cc1F
RECORDED ENDPOINT: Cmax
MEAS VALUE: 18
--
SMILES RECORD: N[C@@H](CC(=O)N1CCn2c(C(F)(F)F)nc(C(=O)[O-])c2C1)Cc1cc(F)c(F)cc1F.[Na+]
RECORDED ENDPOINT: Cmax
MEAS VALUE: 14.2

// recorded Cmax for N[C@@H](CC(=O)N1CCn2c(C(F)(F)F)nc(C(=O)O)c2C1)Cc1cc(F)c(F)cc1F.O=C(O)C[C@H](O)C(=O)O : 13.5

###

# PROTOCOL NOTES: Solubility experiment in four systems
# Type: physicochemical
# EXPERIMENTAL PARAMETERS: water; read-out: Solubility Value, water
solubility listing for selected compounds.
Respond with the bare value in mg/mL.

COMPOUND: N[C@@H](CC(=O)N1CCn2c(C(F)(F)F)nc(C(=O)O)c2C1)Cc1cc(F)c(F)cc1F.O=C(O)C(O)C(O)C(=O)O [Example 12]
solubility [mg/mL]: 19.5
//
COMPOUND: N[C@@H](CC(=O)N1CCn2c(C(F)(F)F)nc(C(=O)[O-])c2C1)Cc1cc(F)c(F)cc1F.[Li+] [Example 5]
solubility [mg/mL]: 40.2
//
COMPOUND: N[C@@H](CC(=O)N1CCn2c(C(F)(F)F)nc(C(=O)[O-])c2C1)Cc1cc(F)c(F)cc1F.[Na+] [Example 4]
solubility [mg/mL]: 43.5
//
COMPOUND: N[C@@H](CC(=O)N1CCn2c(C(F)(F)F)nc(C(=O)O)c2C1)Cc1cc(F)c(F)cc1F.O=C(O)C[C@H](O)C(=O)O [Example 11]
solubility [mg/mL]: 22.2

Memo: Cl.N[C@@H](CC(=O)N1CCn2c(C(F)(F)F)nc(C(=O)O)c2C1)Cc1cc(F)c(F)cc1F [Example 1] , reported solubility: 20.9

###

# PROTOCOL NOTES: Pharmacokinetics assay in rats (LC/MS/MS plasma concentration)
# Format: in vivo, SD rats
# EXPERIMENTAL PARAMETERS: both sexes, SD, rat, plasma, iv, 3 mg/kg, tail vein injection 3.0 mg/kg, read-out: MRT
RECORDED ENDPOINT: MRT (min)
Give the quantity in min, number only.

// sample N[C@@H](CC(=O)N1CCn2c(C(F)(F)F)nc(C(=O)O)c2C1)Cc1cc(F)c(F)cc1F , its MRT was 13.2

###

# PROTOCOL NOTES: Pharmacokinetics assay in rats (LC/MS/MS plasma concentration)
# Format: in vivo, SD rats
# EXPERIMENTAL PARAMETERS: both sexes, SD, rat, plasma, iv, 3 mg/kg, tail vein injection 3.0 mg/kg, read-out: AUC0-t
RECORDED ENDPOINT: AUC(0-t) (ng·h/mL)
Report only the number, with the unit ng·h/mL understood.

Kindly note the recorded AUC(0-t) for N[C@@H](CC(=O)N1CCn2c(C(F)(F)F)nc(C(=O)O)c2C1)Cc1cc(F)c(F)cc1F [Example 3] , which is 2300

###

# PROTOCOL NOTES: Solubility experiment in four systems
# Assay type: physicochemical
# EXPERIMENTAL PARAMETERS: methanol
RECORDED ENDPOINT: Solubility Value, methanol

Example results:
MOLECULE: N[C@@H](CC(=O)N1CCn2c(C(F)(F)F)nc(C(=O)O)c2C1)Cc1cc(F)c(F)cc1F [Example 3]
Solubility Value, methanol: 32.7 mg/mL
//
MOLECULE: N[C@@H](CC(=O)N1CCn2c(C(F)(F)F)nc(C(=O)O)c2C1)Cc1cc(F)c(F)cc1F [Example 8]
Solubility Value, methanol: 20.1 mg/mL

# next molecule below
Looking up N[C@@H](CC(=O)N1CCn2c(C(F)(F)F)nc(C(=O)O)c2C1)Cc1cc(F)c(F)cc1F [Example 10] , I see its Solubility Value, methanol listed as 40.3 mg/mL
